SUBJECT_OF_TEST: T1, 4H3330-AA
T1 chain: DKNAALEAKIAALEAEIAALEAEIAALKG
ASSAY_COMMENT: two-hybrid library CCmax;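 note: natural log of median RNA to DNA barcode read ratio; higher means stronger binding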
APPLIED_CONDITIONS: mean of both orientations
READOUT: interaction score

Check out these entries, answers already filled in.
BINDER: DKIAALEAKNAALEAEIAALKAKNAALEG [4H2447-AA]
READOUT: interaction score
READOUT_VALUE: -0.798
//
BINDER: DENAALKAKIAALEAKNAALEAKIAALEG [4H1845-AA]
READOUT: interaction score
READOUT_VALUE: -1.3
//
BINDER: DKIAALEAKNAALEAENAALKAEIAALKG [4H2458-AA]
READOUT: interaction score
READOUT_VALUE: -1.38

a. DKIAALEAEIAALKAKIAALEAENAALKG [4H2148-AA]
b. DKIAALEAENAALKAKNAALEAEIAALKG [4H2290-AA]
c. DKIAALEAEIAALKAENAALKAKNAALEG [4H2143-AA]
Arrange these binders by their interaction score, starting with the largest number. Lab note: final answer is the ordered label list. a, c, b
